- Test system: Fo.Ste2
- Format: cell-based, Fusarium oxysporum
Where a SMILES comes first, the peptide text is derived from it.
Listed next: entries and their corresponding logEC50.
measured-property: logEC50

C[C@@H](O)[C@H](NC(=O)[C@H](CS)NC(=O)[C@@H](N)Cc1c[nH]c2ccccc12)C(=O)N[C@@H](Cc1c[nH]c2ccccc12)C(=O)N[C@@H](CCCNC(=N)N)C(=O)NCC(=O)N[C@@H](CCC(N)=O)C(=O)N1CCC[C@H]1C(=O)N[C@@H](CS)C(=O)N[C@@H](Cc1c[nH]c2ccccc12)C(=O)O [Fo] (H-WCTWRGQPCW-OH; N-terminus assumed) ... -7.534
CC(C)C[C@H](NC(=O)[C@H](CS)NC(=O)[C@@H](N)Cc1c[nH]c2ccccc12)C(=O)N[C@@H](Cc1c[nH]c2ccccc12)C(=O)N[C@@H](C)C(=O)NCC(=O)N[C@@H](CCC(N)=O)C(=O)N1CCC[C@H]1C(=O)N[C@@H](CS)C(=O)N[C@@H](Cc1c[nH]c2ccccc12)C(=O)O [A4] (H-WCLWAGQPCW-OH; N-terminus assumed) ... -9.288
CC(C)C[C@H](NC(=O)[C@H](CS)NC(=O)[C@@H](N)Cc1c[nH]c2ccccc12)C(=O)N[C@@H](Cc1c[nH]c2ccccc12)C(=O)N[C@@H](CCCNC(=N)N)C(=O)NCC(=O)N[C@@H](CCC(N)=O)C(=O)N1CCC[C@H]1C(=O)N[C@@H](CS)C(=O)N[C@@H](Cc1c[nH]c2ccccc12)C(=O)O [A5] (H-WCLWRGQPCW-OH; N-terminus assumed) ... -8.637
CC(C)C[C@H](NC(=O)[C@H](CS)NC(=O)[C@@H](N)Cc1c[nH]c2ccccc12)C(=O)N[C@@H](CCCNC(=N)N)C(=O)N1CCC[C@H]1C(=O)NCC(=O)N[C@@H](CCC(N)=O)C(=O)N1CCC[C@H]1C(=O)N[C@@H](CS)C(=O)N[C@@H](Cc1c[nH]c2ccccc12)C(=O)O [Cm] (H-WCLRPGQPCW-OH; N-terminus and C-terminus assumed) ... -6.973
